This collection of values is drawn from paper PMC2893567.

- target_of_assay: cholera toxin B5 subunit (CT B5) (Vibrio cholerae serotype O1)
- protocol_text: biochemical
- experimental_parameters: IC50 (saccharide concentration)
pIC50: −log10 of the molar value.
assay_endpoint: pIC50

Tell me reported pIC50 for "O=C[C@H](O)[C@@H](O)[C@@H](O)[C@H](O)CO" , tested with cholera toxin B5 subunit (CT B5) (Vibrio cholerae serotype O1). 1.35 to 1.52
